- System: 786-0 renal
- assay.notes: NCI tumour cell line growth inhibition, 48 h
Where a SMILES comes first, the peptide text is derived from it. [ ]: non-standard residue; d: D form. The star is where a group is joined. ξ: configuration not given here. ξF = NC(Cc1ccccc1)C(=O)O; Cbz = O=C(OCc1ccccc1)*; Aib = CC(C)(N)C(=O)O
measured.endpoint: TGI

Consider the worked cases shown below.
1. COc1cc(C2CC(c3ccc(C)cc3)=NN2C=O)ccc1Oc1ccnc2cc(Cl)ccc12 (configuration not stated): 19.6 µM
2. CCN(CC)CCOc1nc2ccc(OC)cc2c2c1-c1ccc(OC)cc1C2=O: 3.11 µM
3. Cc1nc2ccc(S(=O)(=O)Nc3ccc(Cl)cc3)cc2c(=O)n1NC(=O)CNc1ccc(Cl)cc1: > 100 µM
4. CCCCCc1cc(OC(=O)c2c(O)cc(OC)cc2CCCCC)cc(O)c1C(=O)O: 30.3 µM
5. O=c1[nH]nc(Cc2ccccc2)n1/N=C/c1c[nH]c2ccccc12: > 100 µM
6. CC(=O)c1ccc(N=Nc2ccc3nonc3c2N)cc1: > 100 µM
7. COc1ccc2c(c1)O[C@@H]1C(O)Oc3cc(OC)c(OC)cc3[C@]1(O)C2=O (some centres not stated): > 100 µM
8. Cc1ccc(OCC(=O)N2N=C(c3ccccc3)CC2(O)c2ccccc2)cc1 (configuration not stated): 30 µM
9. CC(C)(NC(=O)OCc1ccccc1)C(=O)NC(Cc1ccccc1)C(=O)O (configuration not stated) (Cbz-[Aib]-[ξF]-OH): > 100 µM
10. CCN1CC(C)Cn2c(=O)[nH]c3cc(Br)cc1c32 (configuration not stated): > 100 µM

The molecule identified as S=C1c2ccccc2NC(=NC2CCCC2)C2CSCN12 (configuration not stated) registered its TGI at > 100 µM

The molecule identified as `O=P(O)(CCP(=O)(O)c1ccccc1)c1ccccc1` registered its TGI at > 100 µM
